Data origin, for the record: paper PMC10261210

Assay: plasma pharmacokinetics (LC–MS/MS, noncompartmental analysis)
Assay type: in vivo, human
Conditions: human, plasma, po, 200 mg, 200 mg (n=7) Q2D oral, cycle 1 day 21, plasma, n 6; read-out: AUC48, geometric mean (%CV)

>  <Smiles str>
C[C@@H](NC(=O)c1ncnc(N)c1Cl)c1ncc(C(=O)Nc2cc(C(F)(F)F)c(Cl)cn2)s1

>  <Reading unit>
µg·h/mL

>  <AUC>
118

$$$$

----------
Assay: plasma pharmacokinetics (LC–MS/MS, noncompartmental analysis)
Format: in vivo, human
Conditions: human, plasma, po, 40 mg, 40 mg Q2D oral, cycle 1 day 21, plasma, n 2; read-out: Cmax, geometric mean (%CV)

>  <Molecule>
C[C@@H](NC(=O)c1ncnc(N)c1Cl)c1ncc(C(=O)Nc2cc(C(F)(F)F)c(Cl)cn2)s1 [tovorafenib]

>  <Cmax>
760 ng/mL

$$$$
